Listed below: pEC50 values for each entry.
Study target: CDK12–cyclin K and DDB1 (Homo sapiens, UniProt Q16531+Q9NYV4, K965R)
Construct: His6–CDK12 (a.a. 713–1,052); full-length or beta-propeller B domain deletion (ΔBPB: a.a. 396–705 deleted) constructs of His6–DDB1ΔBPB, StrepII–Avi–DDB1, or His6–Spy–DDB1; made in house; host or cells: Trichoplusia ni High Five insect cells (baculovirus)
Sequence (Q9NYV4 713-1052 K965R): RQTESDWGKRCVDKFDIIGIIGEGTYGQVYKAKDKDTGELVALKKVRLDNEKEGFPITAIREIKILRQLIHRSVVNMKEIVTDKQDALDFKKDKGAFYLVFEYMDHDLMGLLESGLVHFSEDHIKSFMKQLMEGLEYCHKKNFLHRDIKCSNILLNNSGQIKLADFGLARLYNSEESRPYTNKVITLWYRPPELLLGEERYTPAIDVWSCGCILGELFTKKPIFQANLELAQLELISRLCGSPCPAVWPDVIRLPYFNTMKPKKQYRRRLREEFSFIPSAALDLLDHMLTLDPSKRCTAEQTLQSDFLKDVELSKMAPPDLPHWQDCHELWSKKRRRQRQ
Sequence (O75909 1-267 partner): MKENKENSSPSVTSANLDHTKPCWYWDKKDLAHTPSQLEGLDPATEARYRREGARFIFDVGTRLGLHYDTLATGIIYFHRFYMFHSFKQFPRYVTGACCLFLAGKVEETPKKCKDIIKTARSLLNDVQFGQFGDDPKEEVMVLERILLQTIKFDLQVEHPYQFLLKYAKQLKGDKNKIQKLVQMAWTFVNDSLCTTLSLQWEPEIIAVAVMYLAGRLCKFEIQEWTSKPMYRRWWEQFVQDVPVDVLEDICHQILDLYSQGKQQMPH
Sequence (Q16531 whole entry): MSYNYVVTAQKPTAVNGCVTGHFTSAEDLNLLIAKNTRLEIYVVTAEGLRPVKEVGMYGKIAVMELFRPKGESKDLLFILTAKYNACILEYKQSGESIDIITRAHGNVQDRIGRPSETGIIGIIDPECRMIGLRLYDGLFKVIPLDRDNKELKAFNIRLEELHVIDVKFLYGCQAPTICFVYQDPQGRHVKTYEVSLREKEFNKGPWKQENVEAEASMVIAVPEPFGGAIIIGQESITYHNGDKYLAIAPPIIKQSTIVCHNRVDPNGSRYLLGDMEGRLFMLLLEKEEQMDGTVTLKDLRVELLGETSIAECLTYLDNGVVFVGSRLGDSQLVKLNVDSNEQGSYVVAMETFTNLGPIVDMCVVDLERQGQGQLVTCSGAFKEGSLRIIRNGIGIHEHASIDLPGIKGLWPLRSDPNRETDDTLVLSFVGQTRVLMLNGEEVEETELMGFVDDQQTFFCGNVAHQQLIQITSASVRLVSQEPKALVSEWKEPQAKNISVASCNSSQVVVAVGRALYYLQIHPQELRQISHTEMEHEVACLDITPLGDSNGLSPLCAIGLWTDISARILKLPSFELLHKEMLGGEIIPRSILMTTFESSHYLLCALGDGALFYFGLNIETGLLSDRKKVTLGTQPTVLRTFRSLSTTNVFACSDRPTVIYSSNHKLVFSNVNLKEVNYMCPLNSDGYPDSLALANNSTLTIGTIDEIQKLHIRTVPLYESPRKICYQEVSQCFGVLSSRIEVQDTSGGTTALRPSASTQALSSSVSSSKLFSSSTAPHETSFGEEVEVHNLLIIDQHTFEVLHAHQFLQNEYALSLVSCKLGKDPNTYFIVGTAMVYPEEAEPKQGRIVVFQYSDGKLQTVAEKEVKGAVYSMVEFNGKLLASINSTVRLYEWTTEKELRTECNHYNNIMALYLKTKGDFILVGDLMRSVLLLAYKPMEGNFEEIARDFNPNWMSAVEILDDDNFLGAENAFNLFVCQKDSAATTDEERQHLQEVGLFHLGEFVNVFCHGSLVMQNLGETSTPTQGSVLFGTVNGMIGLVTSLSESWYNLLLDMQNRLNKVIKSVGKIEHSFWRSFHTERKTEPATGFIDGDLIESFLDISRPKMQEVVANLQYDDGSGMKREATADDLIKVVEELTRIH
Method notes: TR-FRET ternary complex formation assay (compound titration)
Type: binding
Test settings: source data sheet correlations; read-out: TR-FRET EC50
Text: A 70 μs delay was employed to reduce background fluorescence. The TR-FRET signal was obtained through calculating the ratio of 520 nm to 490 nm fluorescence, and Prism 9 (GraphPad) was used for further data analysis.
Here pEC50 is given on a logarithmic scale as minus log10 of the concentration in mol/L.

Guide cases for pEC50, answers given:
# Compound, Numeric result
records = [
    ("CC[C@H](CO)Nc1nc(NCc2ccc3ccccc3c2)c2ncn(C(C)C)c2n1 [DS08]", 7.22),
    ("CC(C)n1cnc2c(NCc3nc4cc(Cl)c(Cl)cc4[nH]3)nc(N3CCOCC3)nc21 [DS18]", 8.06),
    ("CN1CCN(c2nc(NCc3nc4c(F)c(F)ccc4[nH]3)n3ncc(Br)c3n2)CC1 [DS71]", 7.56),
]

IN: Under CDK12–cyclin K and DDB1 (Homo sapiens, UniProt Q16531+Q9NYV4, K965R): pEC50 value of CC[C@H](CO)Nc1nc(NCCCc2cccc(F)c2)c2ncn(C(C)C)c2n1 [DS29] ?
OUT: 7.34

IN: Also CC[C@H](CO)Nc1nc(NCCCc2ccc(C)c(C)c2)c2ncn(C(C)C)c2n1 [DS66] ?
OUT: 7.75

IN: Also CC[C@H](CO)Nc1nc(NCc2nc3c(F)c(F)ccc3[nH]2)c2ncn(C(C)C)c2n1 [DS64] ?
OUT: 7.39

IN: Also C[C@H](C(=O)Nc1nc2ccccc2[nH]1)N1Cc2ccccc2C1=O [compound 919278] ?
OUT: 7.42

IN: Also CC[C@H](CO)Nc1nc(NCc2cnc(-c3ccccn3)cc2C2OCCO2)c2ncn(C(C)C)c2n1 [WX4] ?
OUT: 7.10

IN: Also CC[C@H](CO)Nc1nc(NCc2nc3cc(Cl)c(Cl)cc3[nH]2)c2ncn(C(C)C)c2n1 [DS17] ?
OUT: 7.88

IN: Also Cn1cc(-n2cnc3c(NCc4ccc(-c5ccccn5)cc4)nc(N4CCOCC4)nc32)cn1 [DS21] ?
OUT: 6.52

* * *

Study target: CDK12–cyclin K and DDB1 (Homo sapiens, UniProt Q16531+Q9NYV4, K965R)
Construct: His6–CDK12 (a.a. 713–1,052); full-length or beta-propeller B domain deletion (ΔBPB: a.a. 396–705 deleted) constructs of His6–DDB1ΔBPB, StrepII–Avi–DDB1, or His6–Spy–DDB1; made in house; host or cells: Trichoplusia ni High Five insect cells (baculovirus)
Method notes: TR-FRET ternary complex formation assay (compound titration)
Assay type: binding
Test settings: sheet MOESM7; read-out: log TR-FRET EC50 (converted)
Listed below: EC50 values for each entry.
Give the quantity in nM, number only.

Guide cases for EC50, answers given:
# Entry smiles, EC50, nM
data = [
    ("COc1ccc(C)cc1N1C[C@@H](C(=O)Nc2nc3ccccc3[nH]2)CC1=O", 178),
    ("CC[C@H](CO)Nc1nc(NCCC2CCCCCCC2)c2ncn(C(C)C)c2n1", 5740),
    ("CC[C@H](CO)Nc1nc(NCc2ccc(-c3ccc4ccccc4c3)cc2)c2ncn(C(C)C)c2n1", 935),
    ("CC[C@H](CO)Nc1nc(NCc2ccc(-c3cccnc3)cc2)c2ncn(C(C)C)c2n1", 45.1),
    ("CC[C@H](CO)Nc1nc(NCc2ccc(-c3ccncc3)cc2)c2ncn(C(C)C)c2n1", 35.6),
]

IN: Under CDK12–cyclin K and DDB1 (Homo sapiens, UniProt Q16531+Q9NYV4, K965R): EC50 value of CC[C@H](CO)Nc1nc(NCCCc2ccccc2)c2ncn(C(C)C)c2n1 ?
OUT: 56.8

IN: Also CC(C)n1cnc2c(NCc3ccc(-c4ccccn4)cc3)nc(NCCCCCC(=O)N[C@H]3O[C@H](CO)[C@@H](O)[C@H](O)[C@H]3O)nc21 ?
OUT: 274

IN: Also CC[C@H](CO)Nc1nc(NCc2ccc(-c3ccccn3)c(F)c2)c2ncn(C(C)C)c2n1 ?
OUT: 78.2

IN: Also CN1CCN(c2nc(NCc3nc4c(F)c(F)ccc4[nH]3)n3ncc(Br)c3n2)CC1 ?
OUT: 27.6

* * *

Listed below: IC50 values for each entry.
Study target: CDK12–cyclin K (Homo sapiens)
Sequence (Q9NYV4 713-1052, one chain of several): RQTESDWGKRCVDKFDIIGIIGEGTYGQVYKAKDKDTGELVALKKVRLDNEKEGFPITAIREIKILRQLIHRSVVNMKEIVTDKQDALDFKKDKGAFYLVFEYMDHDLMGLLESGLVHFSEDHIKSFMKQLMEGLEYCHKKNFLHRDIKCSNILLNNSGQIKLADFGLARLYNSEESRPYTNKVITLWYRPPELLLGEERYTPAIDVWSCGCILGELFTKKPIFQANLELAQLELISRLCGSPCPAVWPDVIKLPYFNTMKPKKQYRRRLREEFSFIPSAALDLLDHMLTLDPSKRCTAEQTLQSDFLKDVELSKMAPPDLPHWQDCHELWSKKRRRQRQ
Method notes: Lanthascreen kinase binding assay, CDK12
Test settings: Lanthascreen, average; Extended Data Fig. 8; read-out: CDK12 IC50

Guide cases for IC50, answers given:
# Entry smiles, IC50
records = [
    ("O=C(CSc1nnc2c(n1)[nH]c1ccccc12)Nc1ccc(Cl)cn1", "> 10 µM"),
    ("C[C@H](C(=O)Nc1nc2ccccc2[nH]1)N1Cc2ccccc2C1=O", "1.34 µM"),
    ("O=C(CCn1cnc2ccccc2c1=O)Nc1ccc(Br)cn1", "> 10 µM"),
]

Note: attention shifts to another entry.
IN: Could you share which IC50 value was measured for CC[C@H](CO)Nc1nc(NCc2ccc(-c3ccccn3)cc2)c2ncn(-c3cnn(C)c3)c2n1 ?
OUT: > 10 µM

* * *

Listed below: EC50 values for each entry.
Study target: CDK12–cyclin K and DDB1 (Homo sapiens, UniProt Q16531+Q9NYV4, K965R)
Construct: His6–CDK12 (a.a. 713–1,052); full-length or beta-propeller B domain deletion (ΔBPB: a.a. 396–705 deleted) constructs of His6–DDB1ΔBPB, StrepII–Avi–DDB1, or His6–Spy–DDB1; made in house; host or cells: Trichoplusia ni High Five insect cells (baculovirus)
Method notes: TR-FRET ternary complex formation assay (compound titration)
Assay type: binding
Test settings: sheet MOESM7; read-out: log TR-FRET EC50 (converted)
Give the quantity in nM, number only.

Guide cases for EC50, answers given:
# Molecule, EC50 [nM]
measured = [
    ("CCCCc1ccc(CNc2nc(N[C@H](CC)CO)nc3c2ncn3C(C)C)cc1", 185),
    ("O=C(CSc1nc2ccccc2[nH]1)Nc1ccc(Cl)cn1", 263),
    ("CC[C@H](CO)Nc1nc(NCc2ccc(-c3ccccn3)cc2)c2ncn(-c3cnn(C)c3)c2n1", 1840),
    ("CC[C@H](CO)Nc1nc(Nc2ccc(-c3ccccn3)cc2)c2ncn(C(C)C)c2n1 [DRF053, reference compound]", 704),
]

Note: attention shifts to another entry.
IN: Under CDK12–cyclin K and DDB1 (Homo sapiens, UniProt Q16531+Q9NYV4, K965R): EC50 value of CC(C)n1cnc2c(NCc3ccc(-c4ccccn4)cc3)nc(N3CCOCC3)nc21 ?
OUT: 14

* * *

Listed below: TR-FRET signal values for each entry.
Study target: CDK12–cyclin K and DDB1 (Homo sapiens, UniProt Q16531+Q9NYV4, K965R)
Construct: His6–CDK12 (a.a. 713–1,052); full-length or beta-propeller B domain deletion (ΔBPB: a.a. 396–705 deleted) constructs of His6–DDB1ΔBPB, StrepII–Avi–DDB1, or His6–Spy–DDB1; made in house; host or cells: Trichoplusia ni High Five insect cells (baculovirus)
Method notes: TR-FRET Kd determination, quadratic fit, 50 nM or 10 nM CDK12–cyclin K
Assay type: binding
Test settings: 50 nM CDK12-cyclin K; compound 0.468 nM
Respond using a number only.

# Compound, Quantity, Numeric result
rows = [
    ("CC[C@H](CO)Nc1nc(NCc2nc3cc(Cl)c(Cl)cc3[nH]2)c2ncn(C(C)C)c2n1", "TR-FRET signal", 0.2322),
    ("CCC(CO)Nc1nc(NCc2ccc(-c3ccccn3)cc2)c2ncn(C(C)C)c2n1 (stereo not shown) [CR8, reference compound]", "TR-FRET signal", 0.2224),
    ("CCC(CO)Nc1nc(NCc2ccc(-c3ccccc3)cc2)c2ncn(C(C)C)c2n1 (stereo not shown)", "TR-FRET signal", 0.2249),
]

Note: attention shifts to another entry.
IN: Under CDK12–cyclin K and DDB1 (Homo sapiens, UniProt Q16531+Q9NYV4, K965R): TR-FRET signal value of Cc1cc2nc(CNc3nc(N4CCN(C)CC4)nc4c(Br)cnn34)[nH]c2cc1C [DS73, reference compound] ?
OUT: 0.2245

* * *

Study target: CDK12–cyclin K and DDB1 (Homo sapiens, UniProt Q16531+Q9NYV4, K965R)
Construct: His6–CDK12 (a.a. 713–1,052); full-length or beta-propeller B domain deletion (ΔBPB: a.a. 396–705 deleted) constructs of His6–DDB1ΔBPB, StrepII–Avi–DDB1, or His6–Spy–DDB1; made in house; host or cells: Trichoplusia ni High Five insect cells (baculovirus)
Method notes: TR-FRET ternary complex formation assay (compound titration)
Type: binding
Test settings: in vitro complex formation, 50 nM CDK12–cyclin K, 100 nM DDB1; text and figures; read-out: TR-FRET EC50
Quantity: pEC50
Here pEC50 is given on a logarithmic scale as minus log10 of the concentration in mol/L.

# Entry smiles, pEC50
measured = [
    ("CC[C@H](CO)Nc1nc(NCCCc2ccco2)c2ncn(C(C)C)c2n1", 6.22),
    ("Cn1cc(-c2cnn3c(NCc4nc5cc(Cl)c(Cl)cc5[nH]4)nc(N4CCOCC4)nc23)cn1", 7.70),
]

IN: Under CDK12–cyclin K and DDB1 (Homo sapiens, UniProt Q16531+Q9NYV4, K965R): pEC50 value of CC[C@H](CO)Nc1nc(NCCCc2ccc(Cl)c(Cl)c2)c2ncn(C(C)C)c2n1 ?
OUT: 7.68

IN: Also CC[C@H](CO)Nc1nc(NCc2cnc(-c3ccccn3)cc2C2OCCO2)c2ncn(C(C)C)c2n1 ?
OUT: 7.10

Data origin, for the record: paper PMC10746543
